Attribution: ChEMBL document CHEMBL3407422

test: Kinetic solubility of the compound at pH 7.4; type: physicochemical; details: buffer, read-out: Kinetic_solubility
Measured solubility kinetic, listed per entry for reference.
Number in µM, nothing else.

>>> df
                                   compound  value_measured
0  CCN1CC(C)(C)OC(=O)C1CC(=O)NCc1cccc(-c2ccccc2)c1 (configuration not stated)              50

Lab note: next compound to report on.
# solubility kinetic (compound: CCN1CC(C)(C)OC(=O)C1CC(=O)Nc1ccc(C(C)C)cc1 (configuration not stated) ) is 50

====

assay: Apparent permeability from basolateral to apical side in human Caco2 cells; format: ADME, cell-based; settings: Caco-2
Measured Papp B→A, listed per entry for reference.

                                   molecule  value_measured
0  CCN1CC(C)(C)OC(=O)C1CC(=O)Nc1ccc(C(C)C)cc1 (configuration not stated)   35 ×10⁻⁶ cm/s

Lab note: next molecule to report on.
# Papp B→A (molecule: CCN1CC(C)(C)OC(=O)C1CC(=O)NCc1cccc(-c2ccccc2)c1 (configuration not stated) ) is 13 ×10⁻⁶ cm/s
